# MEASURED ON: human Edg-1(S1P1) (Homo sapiens, UniProt P21453)
# Construct: expressed in transfected cells; host or cells: HEK-293
# Sequence (P21453 whole entry): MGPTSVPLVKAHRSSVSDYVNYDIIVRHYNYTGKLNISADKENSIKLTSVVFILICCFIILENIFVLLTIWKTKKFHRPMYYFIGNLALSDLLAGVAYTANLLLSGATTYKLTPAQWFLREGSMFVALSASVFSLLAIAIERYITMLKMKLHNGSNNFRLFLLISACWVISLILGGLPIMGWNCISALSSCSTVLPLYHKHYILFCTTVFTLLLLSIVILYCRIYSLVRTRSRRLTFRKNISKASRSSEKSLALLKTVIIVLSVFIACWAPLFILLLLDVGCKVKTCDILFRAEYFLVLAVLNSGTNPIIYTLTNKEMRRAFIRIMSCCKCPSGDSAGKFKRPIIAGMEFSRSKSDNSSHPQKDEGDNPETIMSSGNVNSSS
# METHOD SUMMARY: Cell system binding test: inhibition of [3H]-S1P binding to Edg-1(S1P1) gene transferred HEK-293 cells
# COND: 10 μM compound, [3H]-S1P 10 nM, read-out: Cell system binding test % inhibition (10 μM)
MEASUREMENT KIND: inhibition at 10 µM (%)

>  <MOLECULE>
CCn1c(OC)nnc1[C@@H](C)NS(=O)(=O)c1cccc(C(=O)c2ccccn2)c1

>  <MEASURED ON>
human Edg-1(S1P1) (Homo sapiens, UniProt P21453)

>  <inhibition at 10 µM / %>
79.6

$$$$
>  <MOLECULE>
CCn1c(OC)nnc1[C@@H](C)NS(=O)(=O)c1c(Cl)cccc1Cl

>  <MEASURED ON>
human Edg-1(S1P1) (Homo sapiens, UniProt P21453)

>  <inhibition at 10 µM / %>
95.9

$$$$

1: CCCOc1nnc([C@@H](C)NS(=O)(=O)c2ccc(OC)cc2)n1CC
2: CCCCCCCCCCS(=O)(=O)N[C@H](C)c1nnc(OC)n1CC
Choose between 1 and 2 : whose measured inhibition at 10 µM value is numerically larger? Answer by stating the label of the chosen item. 1
(1: 103%, 2: 54.7%)

I: CCn1c(SCCS(=O)(=O)c2ccccc2)nnc1[C@@H](C)NS(=O)(=O)c1ccc(Cl)cc1
II: C=CCSc1nnc([C@@H](Cc2ccccc2)NS(=O)(=O)c2ccc(Cl)cc2)n1CCOC
Would you let me know which has the greater inhibition at 10 µM value, I or II ? // respond with label for picked entry I

====

# MEASURED ON: human Edg-1(S1P1) (Homo sapiens, UniProt P21453)
# Construct: expressed in transfected cells; host or cells: HEK-293
# METHOD SUMMARY: Cell system binding test: inhibition of [3H]-S1P binding to Edg-1(S1P1) gene transferred HEK-293 cells
# COND: 10 μM compound, [3H]-S1P 10 nM, read-out: Cell system binding test % inhibition (10 μM)
MEASUREMENT KIND: inhibition at 10 µM (%)

a: CCn1c(OC)nnc1[C@@H](C)NS(=O)(=O)c1ccc(Cl)cc1F
b: CCn1c(OC)nnc1[C@@H](C)NS(=O)(=O)c1ccccc1-c1ccccc1
Task for the reader: decide whether a or b has the larger inhibition at 10 µM. // respond with label for picked entry a
(a: 95.9%, b: 32.3%)

====

# MEASURED ON: human Edg-1(S1P1) (Homo sapiens, UniProt P21453)
# Construct: expressed in transfected cells; host or cells: HEK-293
# METHOD SUMMARY: Cell system binding test: inhibition of [3H]-S1P binding to Edg-1(S1P1) gene transferred HEK-293 cells
# COND: 10 μM compound, [3H]-S1P 10 nM, read-out: Cell system binding test % inhibition (10 μM)
MEASUREMENT KIND: inhibition at 10 µM (%)

>  <MOLECULE>
Cn1c(SCc2ccc(Cl)c(Cl)c2)nnc1C(Cc1ccccc1)NS(=O)(=O)c1ccc(Cl)cc1 (stereo not shown)

>  <inhibition at 10 µM (%)>
99

$$$$
>  <MOLECULE>
CCn1c(SCCSC)nnc1[C@@H](C)NS(=O)(=O)c1ccc(Cl)cc1

>  <inhibition at 10 µM (%)>
84

$$$$
>  <MOLECULE>
CCn1c(SC2CCN(C)CC2)nnc1[C@@H](C)NS(=O)(=O)c1ccc(Cl)cc1

>  <inhibition at 10 µM (%)>
88.4

$$$$
>  <MOLECULE>
CCn1c(OCCCOC)nnc1[C@@H](C)NS(=O)(=O)c1ccc(Cl)cc1

>  <inhibition at 10 µM (%)>
85.8

$$$$
